Target: UniProt P05177
Sequence (P05177 whole entry): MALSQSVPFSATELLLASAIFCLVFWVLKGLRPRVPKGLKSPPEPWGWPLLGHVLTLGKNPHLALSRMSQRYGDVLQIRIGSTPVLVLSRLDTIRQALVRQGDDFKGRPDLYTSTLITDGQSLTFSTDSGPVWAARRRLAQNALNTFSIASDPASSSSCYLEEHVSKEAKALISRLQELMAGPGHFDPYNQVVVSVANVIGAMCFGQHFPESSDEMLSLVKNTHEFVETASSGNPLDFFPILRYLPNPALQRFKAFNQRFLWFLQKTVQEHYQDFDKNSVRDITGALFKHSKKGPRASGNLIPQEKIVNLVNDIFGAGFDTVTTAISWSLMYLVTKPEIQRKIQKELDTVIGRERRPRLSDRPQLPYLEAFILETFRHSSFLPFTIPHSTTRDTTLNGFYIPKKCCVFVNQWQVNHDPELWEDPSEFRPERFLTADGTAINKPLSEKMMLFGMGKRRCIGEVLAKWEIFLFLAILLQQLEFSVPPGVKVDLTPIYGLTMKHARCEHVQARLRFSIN
Experiment: Inhibition of recombinant human CYP1A2 using 7-ethoxyresorufin as substrate after 50 mins in presence of NADP+ by EROD assay
pIC50: −log10 of the molar value.
measured-quantity: pIC50

Example cases with answers are listed next.
COc1ccc(OC)c2c1c(OC)cc1c(=O)cc(-c3cccc(C)n3)oc12: 6.83
COc1ccc(OC)c2c1c(OC)cc1c(=O)cc(-c3cscn3)oc12: 7.53
COc1ccc(OC)c2c1c(OC)cc1c(=O)cc(-c3ccc(Cl)cn3)oc12: 6.68
COc1ccc(OC)c2c1c(OC)cc1c(=O)cc(-c3cccs3)oc12: 7.39

A: COc1ccc(OC)c2c1c(OC)cc1c(=O)cc(-c3ccnc(F)c3)oc12
B: COc1ccc(OC)c2c1c(OC)cc1c(=O)cc(-c3ccc(N)nc3)oc12
**Query** Please state the entry with greater pIC50 among A and B . Let me know the label of the one you choose.
**Result** B

1: COc1ccc(OC)c2c1c(OC)cc1c(=O)cc(-c3ccc(Br)cn3)oc12
2: COc1ccc(OC)c2c1c(OC)cc1c(=O)cc(-c3ccccn3)oc12
**Query** Please state the entry with greater pIC50 among 1 and 2 . Let me know the label of the one you choose.
**Result** 2
